# PROTOCOL DESCRIPTION: Exudation of active agents from gel specimens to filter paper discs, quantified by UV, MS, GC and/or HPLC after extraction
# Type: physicochemical
# MEASUREMENT CONDITIONS: Gel Specimen Number 1; 18 h filter exposure, time 22-40 h; 37° C., 0.40 psi
QUANTITY: Active Agent Transferred from Gel to Filters (μg per filter)

MOLECULE | MEASURED NUMBER
COC(=O)c1ccccc1O [Methyl Salicylate, reference compound] | 5165

a. O=C(O)c1ccccc1O [Salicylic Acid, reference compound]
b. O=c1c(O)c(-c2ccc(O)c(O)c2)oc2cc(O)cc(O)c12 [Quercetin]
c. CCCCCCCCCCCCCCCC(=O)OC/C=C(C)/C=C/C=C(C)/C=C/C1=C(C)CCCC1(C)C [Vit. A Palmitate, reference compound]
### Prompt Ascending sort, Active Agent Transferred from Gel to Filters. Reply format: the labels, ordered as requested.
### Response b, c, a
